Ref: patent US20030185819A1

target_of_assay: T1, VLA-4 (integrin alpha4 beta1) on the human B cell line Ramos (human, UniProt P13612 34-1032; P05556 21-798)
T1 construct: whole, on cells; also called α4β1; VLA-4-expressing cells
method: adhesion assay: inhibition of Ramos cell binding to immobilized rsVCAM1 (n = 2)
metric: IC50 (µg/mL)
Kindly answer with a numeric value in µg/mL, unit omitted.

binder	measurement
AS/SVMDY humanized anti-VLA-4 antibody (antibody, V domains shown, Human IgG1 or IgG4 / kappa; also called AS mutant heavy chain combined with the improved light chain (SVMDY); antibody produced by ATCC CRL 11175) VH: QVQLQESGPGLVRPSQTLSLTCTASGFNIKDTYMHWVRQPPGRGLEWIGRIDPASGDTKYDPKFQVRVTMLVDTSSNQFSLRLSSVTAADTAVYYCADGMWVSTGYALDFWGQGTTVTVSS VL: SIVMTQSPSSLSASVGDRVTITCKASQSVTNDVAWYQQKPGKAPKLLIYYASNRYTGVPDRFSGSGYGTDFTFTISSLQPEDIATYYCQQDYSSPYTFGQGTKVEIKR	0.012

Please report the recorded IC50 for Stage 3 AS humanized anti-VLA-4 antibody with VK1 (DQL) light chain (antibody, V domains shown, Human IgG1 or IgG4 / kappa; also called VH-AS) VH: QVQLQESGPGLVRPSQTLSLTCTASGFNIKDTYMHWVRQPPGRGLEWIGRIDPASGDTKYDPKFQVRVTMLVDTSSNQFSLRLSSVTAADTAVYYCADGMWVSTGYALDFWGQGTTVTVSS VL: DIQLTQSPSSLSASVGDRVTITCKASQSVTNDVAWYQQKPGKAPKLLIYYASNRYTGVPSRFSGSGSGTDFTFTISSLQPEDIATYYCQQDYSSPYTFGQGTKVEIKR .
0.028

Please report the recorded IC50 for Stage 3 SSE humanized anti-VLA-4 antibody with VK1 (DQL) light chain (antibody, V domains shown, Human IgG1 or IgG4 / kappa; also called VH-SSE) VH: QVQLQESGPGLVRPSQTLSLTCTVSGFNIKDTYMHWVRQPPGRGLEWIGRIDPASGDTKYDPKFQVRVTMLVDTSSNQFSLRLSSVTSEDTAVYYCADGMWVSTGYALDFWGQGTTVTVSS VL: DIQLTQSPSSLSASVGDRVTITCKASQSVTNDVAWYQQKPGKAPKLLIYYASNRYTGVPSRFSGSGSGTDFTFTISSLQPEDIATYYCQQDYSSPYTFGQGTKVEIKR .
0.1

Please report the recorded IC50 for Stage 3 KAITAS humanized anti-VLA-4 antibody with VK1 (DQL) light chain (antibody, V domains shown, Human IgG1 or IgG4 / kappa; also called VH-KAITAS) VH: QVQLQESGPGLVRPSQTLSLTCTVSGFNIKDTYMHWVRQPPGRGLEWIGRIDPASGDTKYDPKFQVKATITADTSSNQFSLRLSSVTAADTAVYYCADGMWVSTGYALDFWGQGTTVTVSS VL: DIQLTQSPSSLSASVGDRVTITCKASQSVTNDVAWYQQKPGKAPKLLIYYASNRYTGVPSRFSGSGSGTDFTFTISSLQPEDIATYYCQQDYSSPYTFGQGTKVEIKR .
0.085
